The reported measurements were obtained from ChEMBL document CHEMBL4004849.

- System: Candida albicans
- TEST DETAILS: Antifungal activity against Candida albicans after 24 hrs by serial dilution method
- Assay type: functional
Provide the reported MIC of each item.
Units required after the number.

Query block: Specify measured MIC for `Clc1nc2ccccc2cc1Cn1nnc(CSc2ccccc2)n1` .
Result block: 10 µg/mL

Query block: Specify measured MIC for `Cc1ccc2nc(Cl)c(Cn3nnc(Cc4ccccc4)n3)cc2c1` .
Result block: 25 µg/mL

Query block: Specify measured MIC for `COc1ccc2nc(Cl)c(Cn3nnc(CSc4ccccc4)n3)cc2c1` .
Result block: 25 µg/mL

Query block: Specify measured MIC for `Fc1ccc2nc(Cl)c(Cn3nnnc3Cc3ccccc3)cc2c1` .
Result block: 25 µg/mL

----------
Provide the reported zone of inhibition at 100 µg/mL of each item.
- Test system: Aspergillus fumigatus
- TEST DETAILS: Antifungal activity against Aspergillus fumigatus at 100 ug/ml by disc diffusion method
- Format: functional
- CONDITION PARAMETERS: read-out: IZ
Write the number in mm without appending the unit.

Query block: Provide zone of inhibition at 100 µg/mL, recorded with Aspergillus fumigatus, of `Clc1nc2ccccc2cc1Cn1nnnc1Cc1ccccc1`
Result block: 14

Query block: Provide zone of inhibition at 100 µg/mL, recorded with Aspergillus fumigatus, of `Clc1nc2ccccc2cc1Cn1nnnc1CSc1ccccc1`
Result block: 16

Query block: Provide zone of inhibition at 100 µg/mL, recorded with Aspergillus fumigatus, of `COc1ccc2nc(Cl)c(Cn3nnnc3Cc3ccccc3)cc2c1`
Result block: 20

----------
- Test system: Candida albicans
- TEST DETAILS: Antifungal activity against Candida albicans after 24 hrs by serial dilution method
- Type: functional
MEASURED PROPERTY: MIC (µg/mL)
Write the number in µg/mL without appending the unit.

Query block: Specify measured MIC for `Clc1nc2ccccc2cc1Cn1nnnc1CSc1ccccc1` .
Result block: 10

Query block: Specify measured MIC for `Fc1ccc2nc(Cl)c(Cn3nnnc3CSc3ccccc3)cc2c1` .
Result block: 50

Query block: Specify measured MIC for `Clc1nc2ccc(Br)cc2cc1Cn1nnc(Cc2ccccc2)n1` .
Result block: 10

Query block: Specify measured MIC for `Clc1nc2ccc(Br)cc2cc1Cn1nnnc1Cc1ccccc1` .
Result block: 10

Query block: Specify measured MIC for `Fc1ccc2nc(Cl)c(Cn3nnc(CSc4ccccc4)n3)cc2c1` .
Result block: 50

Query block: Specify measured MIC for `OC(Cn1cncn1)(Cn1cncn1)c1ccc(F)cc1F` .
Result block: 30

Query block: Specify measured MIC for `Clc1nc2ccccc2cc1Cn1nnnc1Cc1ccccc1` .
Result block: 25

Query block: Specify measured MIC for `COc1ccc2nc(Cl)c(Cn3nnnc3Cc3ccccc3)cc2c1` .
Result block: 25

Query block: Specify measured MIC for `Fc1ccc2nc(Cl)c(Cn3nnc(Cc4ccccc4)n3)cc2c1` .
Result block: 25

Query block: Specify measured MIC for `COc1ccc2nc(Cl)c(Cn3nnnc3CSc3ccccc3)cc2c1` .
Result block: 25

Query block: Specify measured MIC for `Cc1ccc2nc(Cl)c(Cn3nnc(CSc4ccccc4)n3)cc2c1` .
Result block: 10

----------
- Tested on: Candida albicans
- TEST DETAILS: Antifungal activity against Candida albicans after 24 hrs by serial dilution method
- Format: functional
MEASURED PROPERTY: MIC (µg/mL)
Write the number in µg/mL without appending the unit.

Query block: Specify measured MIC for `Clc1nc2ccc(Br)cc2cc1Cn1nnnc1CSc1ccccc1` .
Result block: 25

Query block: Specify measured MIC for `Cc1ccc2nc(Cl)c(Cn3nnnc3Cc3ccccc3)cc2c1` .
Result block: 25

Query block: Specify measured MIC for `COc1ccc2nc(Cl)c(Cn3nnc(Cc4ccccc4)n3)cc2c1` .
Result block: 10

Query block: Specify measured MIC for `Cc1ccc2nc(Cl)c(Cn3nnnc3CSc3ccccc3)cc2c1` .
Result block: 10

Query block: Specify measured MIC for `Clc1nc2ccccc2cc1Cn1nnc(Cc2ccccc2)n1` .
Result block: 25

Query block: Specify measured MIC for `Clc1nc2ccc(Br)cc2cc1Cn1nnc(CSc2ccccc2)n1` .
Result block: 25
